B1: APBB1IP (parent)
chain: PPEPLSQVSMWDQRWQDHQPLLPI

# Variants of: B1
# measurement description: protein stability index of a GFP-peptide fusion (GPS, HEK-293T) (PSI 1-6); higher = more stable;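 also: lentivirally expressed fusions sorted by FACS into six bins by GFP to DsRed ratio, PSI derived from sequencing read proportions per bin multiplied by bin number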
# applied conditions: c terminus: a fixed tail appended
Decide using protein stability index: a value greater than or equal to 3 is YES, a smaller one is NO.

D17Y ... NO
R14F ... NO
S6Y ... NO
V8F ... NO
L22G ... YES

Request: Reported protein stability index reaches at least 3 for `V8P` ?
Response: YES

Request: Given `D17A` , state whether its protein stability index is at least 3.
Response: NO
